Hello, the source for this data is patent US5354748A, in case you need it.

assay: Plasma concentration and urinary excretion of penem in dogs, capsules with glutathione (Example 7); assay type: in vivo; settings: dog, urine, po, 75 mg, oral capsule 75 mg (titer), penem:glutathione molar ratio 110:1, up to 24 hours, read-out: Excretion into urine
Measured Parameter: dose excreted at 24 h (%)
Unit % implied. Number only.

Task: Please look up its dose excreted at 24 h: C[C@@H](O)[C@H]1C(=O)N2C(C(=O)O)=C([C@H]3CCCO3)S[C@H]12 [hydrate]
Output: 19.9
